// values below are reported GI50
System: MDA-N
Assay: NCI tumour cell line growth inhibition, 48 h
Calls of active or inactive are those of the source. Rule as the data show it: active = GI50 up to about 1.1 µM and inactive = higher.
recorded.endpoint: GI50

{"compound": "c1ccc(NN=C(c2ccccn2)c2ccccn2)nc1", "target.or.system": "MDA-N", "measurement": "0.533 µM (active)"}
{"compound": "N=C(N)NS(=O)(=O)c1ccc(NC(=O)c2ccc3nc4ccccc4c(N)c3c2)cc1", "target.or.system": "MDA-N", "measurement": "> 100 µM (inactive)"}
{"compound": "CC(=O)O[C@H]1C(=O)[C@@]2(C)[C@H]([C@H](OC(=O)c3ccc([N+](=O)[O-])cc3)[C@]3(O)C[C@H](OC(=O)[C@H](O)[C@@H](NC(=O)c4ccccc4)c4ccccc4)C(C)=C1C3(C)C)[C@]1(OC(C)=O)CO[C@@H]1C[C@@H]2O", "target.or.system": "MDA-N", "measurement": "16.8 µM (inactive)"}
{"compound": "CN(C(=O)c1cc2c(s1)sc1c(=O)n(C)c3ccccc3c12)c1ccccc1", "target.or.system": "MDA-N", "measurement": "0.61 µM (active)"}
{"compound": "O=CNc1ccc2c(c1)C(=O)c1ccccc1-2", "target.or.system": "MDA-N", "measurement": "> 100 µM (inactive)"}
{"compound": "CC1(C=O)CCC23COC4(CCC5C6(C)CCC(OC7OCC(OC8OC(CO)C(O)C(OC9OC(CO)C(O)C(O)C9O)C8OC8OCC(O)C(O)C8O)C(O)C7OC7OC(CO)C(O)C(O)C7O)C(C)(C)C6CCC5(C)C4(C)CC2O)C3C1 (stereo not drawn)", "target.or.system": "MDA-N", "measurement": "0.557 µM (active)"}
{"compound": "N=c1oc2ccc(Cl)cc2cc1C(N)=O", "target.or.system": "MDA-N", "measurement": "25.1 µM (inactive)"}
{"compound": "O=C1Nc2ccccc2/C1=N/NC(=O)C(O)(c1ccccc1)c1ccccc1", "target.or.system": "MDA-N", "measurement": "16.9 µM (inactive)"}
{"compound": "CC(=O)Oc1c(C)cc2c(c1C)C(C)CN2C(C)=O (stereo not drawn)", "target.or.system": "MDA-N", "measurement": "> 100 µM (inactive)"}
{"compound": "CSc1nc(C)c(Br)c(=O)n1C1OC(COC(C)=O)C(OC(C)=O)C(OC(C)=O)C1OC(C)=O (stereo not drawn)", "target.or.system": "MDA-N", "measurement": "> 100 µM (inactive)"}
{"compound": "Cc1cc(NC(=O)NC(=O)c2ccccc2NC(=O)CN)ccc1Oc1ncc(Br)cn1", "target.or.system": "MDA-N", "measurement": "0.105 µM (active)"}
{"compound": "Cc1c(S(=O)(=O)N/C(=N\\O)Nc2ccc(Cl)c(Cl)c2)sc2ccc(Cl)cc12", "target.or.system": "MDA-N", "measurement": "17.5 µM (inactive)"}
{"compound": "CCOC(=O)C(NC(=O)c1ccccc1)(Nc1ccc(S(=O)(=O)Nc2cc(C)on2)cc1)C(F)(F)F (stereo not drawn)", "target.or.system": "MDA-N", "measurement": "> 100 µM (inactive)"}
{"compound": "CC(=O)OC1CC(O)CC2=CCC3C4CCC(C(C)(O)C(O)CC5COC(=O)C5C)C4(C)CCC3C21C (stereo not drawn)", "target.or.system": "MDA-N", "measurement": "> 25 µM (inactive)"}
{"compound": "O=C1c2ccccc2-c2nc(-c3ccncc3)cc3c2c1nc1ccccc13", "target.or.system": "MDA-N", "measurement": "17.4 µM (inactive)"}
{"compound": "CCc1c[n+]2c(cc1C1=CN3c4ccccc4[C@]45CCN6C/C(=C/CO)[C@H](C[C@H]64)[C@@H]([C@@H]1O)[C@H]35)-c1[nH]c3ccccc3c1CC2", "target.or.system": "MDA-N", "measurement": "> 50 µM (inactive)"}
{"compound": "CCCCSC1=N/C(=C\\c2ccccc2O)C(Cl)=N1", "target.or.system": "MDA-N", "measurement": "> 100 µM (inactive)"}
{"compound": "CC1=C2CC(C)(C)/C=C\\C(=O)/C(C)=C\\C3=C[C@H](C)C[C@]3(O2)C1=O", "target.or.system": "MDA-N", "measurement": "0.914 µM (active)"}
{"compound": "Brc1ccc(-c2cn3ccncc3n2)cc1", "target.or.system": "MDA-N", "measurement": "> 100 µM (inactive)"}
{"compound": "CC(C)C(OC(=O)c1cc(NC(=S)c2ccccc2)ccc1Cl)C(C)C", "target.or.system": "MDA-N", "measurement": "16.6 µM (inactive)"}
{"compound": "CC(C)(CCC(C)(C)c1ccccc1)c1ccccc1", "target.or.system": "MDA-N", "measurement": "22.2 µM (inactive)"}
{"compound": "CCc1ccc(Nc2cc(=O)n(C)c(SCc3ccccc3)n2)cc1", "target.or.system": "MDA-N", "measurement": "> 100 µM (inactive)"}
{"compound": "COc1ccc2c(c1)-c1nc(=S)n(CCN(C)C)c3ccc([N+](=O)[O-])c(c13)N2", "target.or.system": "MDA-N", "measurement": "0.948 µM (active)"}
{"compound": "O=C(CSc1nnc(-c2ccccn2)s1)N/N=C/c1ccc([N+](=O)[O-])cc1", "target.or.system": "MDA-N", "measurement": "> 100 µM (inactive)"}
{"compound": "CC(=O)OCC(OC(C)=O)C(OC(C)=O)C(OC(C)=O)C(C=NN(C(C)=O)S(=O)(=O)c1ccc(/C=C2\\NC(=O)N(C)C2=O)cc1)OC(C)=O (stereo not drawn)", "target.or.system": "MDA-N", "measurement": "32.6 µM (inactive)"}
{"compound": "O=C(Nc1ccn(C2CC(O)C(CO)O2)c(=O)n1)c1ccccc1 (stereo not drawn)", "target.or.system": "MDA-N", "measurement": "> 100 µM (inactive)"}
{"compound": "O=c1[nH]c(=O)n(C2CC(O)C(CO)O2)cc1OCCCc1ccccc1 (stereo not drawn)", "target.or.system": "MDA-N", "measurement": "> 100 µM (inactive)"}
{"compound": "Cn1ccc(C(=O)N2CCSC2=S)c(OCc2ccccc2)c1=O", "target.or.system": "MDA-N", "measurement": "> 100 µM (inactive)"}
{"compound": "C=C1CN(C2=NCCO2)C1", "target.or.system": "MDA-N", "measurement": "> 100 µM (inactive)"}
{"compound": "CCOC(=O)Nc1ccc(S(=O)(=O)Nc2ccc(Br)cc2)cc1", "target.or.system": "MDA-N", "measurement": "37 µM (inactive)"}
{"compound": "O=C1CC(C(OCc2ccccc2)C(OCc2ccccc2)C(COCc2ccccc2)OCc2ccccc2)CC(=O)N1 (stereo not drawn)", "target.or.system": "MDA-N", "measurement": "> 75 µM (inactive)"}
{"compound": "COc1ccc(Oc2nc(C#CC(C)(C)O)nc(Oc3ccc(OC)cc3)n2)cc1", "target.or.system": "MDA-N", "measurement": "8.55 µM (inactive)"}
{"compound": "c1ccc(-c2nnn3c2NC2=C(CCCC2)C3c2ccccc2)cc1 (stereo not drawn)", "target.or.system": "MDA-N", "measurement": "12.9 µM (inactive)"}
{"compound": "COc1c2c(cc3oc(C)cc(=O)c13)OC(=N)C(C(N)=O)C2CC(=O)c1ccc(N)cc1 (stereo not drawn)", "target.or.system": "MDA-N", "measurement": "> 100 µM (inactive)"}
{"compound": "Cc1c2ccccc2c(C)n2c1nc1ccccc12", "target.or.system": "MDA-N", "measurement": "10.6 µM (inactive)"}
{"compound": "C=Cc1cc(OC)c2c(c1)c(=O)oc1c2cc(OC)c2c(O)ccc(C3OC(C)C(O)C(C)(O)C3O)c21 (stereo not drawn)", "target.or.system": "MDA-N", "measurement": "0.00171 µM (active)"}
{"compound": "CN(C)C1(C(=O)O)CC1", "target.or.system": "MDA-N", "measurement": "> 100 µM (inactive)"}
{"compound": "C=C1c2nc3ccccc3n2C=C(c2ccc(Cl)cc2)N1c1ccccc1", "target.or.system": "MDA-N", "measurement": "33.1 µM (inactive)"}

----------
Test system: HCC 2998
Experiment: NCI tumour cell line growth inhibition, 48 h
Calls of active or inactive are those of the source. No stated cut-off is given here; in the data, active = GI50 up to about 1.1 µM and inactive = higher. Where a SMILES comes first, the peptide text is derived from it. [ ]: non-standard residue; d: D form. The star is where a group is joined. Cbz = O=C(OCc1ccccc1)*; Aib = CC(C)(N)C(=O)O; OBn = c1ccc(CO*)cc1
Property: GI50; scope: individual compounds

{"compound": "CN(CCCCN(C)CCc1ccc(Cl)c(Cl)c1)CCCCN1CCCC1", "GI50": "0.195 µM (active)"}
{"compound": "COC(=O)C12C(=O)O[C@H](C)C1(O)C(C)C(=O)N2C (stereo not given in full)", "GI50": "> 100 µM (inactive)"}
{"compound": "Cc1cc2c(=O)c3ccccc3[nH]c2c(C(=O)O)c1C", "GI50": "> 100 µM (inactive)"}
{"compound": "OCC(O)C(O)C(O)c1nn(-c2ccccc2)c2nc3cc(Cl)c(Cl)cc3nc12 (stereo not given)", "GI50": "32.9 µM (inactive)"}
{"compound": "CC(NC(=O)C(C)(C)NC(=O)C(CC(=O)OCc1ccccc1)NC(=O)OCc1ccccc1)C(N)=O (stereo not given) (Cbz-Asp(OBn)-[Aib]-Ala-NH2; configuration not given here)", "GI50": "> 100 µM (inactive)"}
{"compound": "CCCCOC(=O)C1CN2C=CC=NC2=NC1(C(F)(F)F)C(F)(F)F (stereo not given)", "GI50": "> 100 µM (inactive)"}
{"compound": "Fc1ccc(C(OCCN2CC3CC2CN3)c2ccc(F)cc2)cc1 (stereo not given)", "GI50": "16.4 µM (inactive)"}
{"compound": "C[C@@]12CC[C@H]3[C@@H]4CCC(=O)N[C@@]4(C)CC[C@@H]3[C@@]1(C)CC[C@H](OC(=O)Cc1ccc(N(CCCl)CCCl)cc1)C2", "GI50": "16.3 µM (inactive)"}
{"compound": "O=C(Cc1ccccc1)N/N=C(/c1nc2ccc([N+](=O)[O-])cc2nc1O)C(O)c1ccco1 (stereo not given)", "GI50": "> 100 µM (inactive)"}
{"compound": "COC1=C(OC)C(=O)C(Sc2ccc3ccccc3c2)=CC1=O", "GI50": "11.6 µM (inactive)"}
{"compound": "O=C1c2ccccc2/C(=N\\c2ccc3ccccc3c2)C1(C1=C(c2ccccc2)/C(=N/c2ccc3ccccc3c2)c2ccccc21)c1ccccc1 (stereo not given)", "GI50": "11.5 µM (inactive)"}
{"compound": "CCOC1NC(=O)Oc2ccccc21 (stereo not given)", "GI50": "> 100 µM (inactive)"}
{"compound": "c1ccc2c(Nc3ncco3)cccc2c1", "GI50": "> 10 µM (inactive)"}
{"compound": "CCP(=O)(CC)C(Cl)(Cl)C(=O)NC", "GI50": "> 100 µM (inactive)"}
{"compound": "CCOC(=O)/C=C(\\N=P(c1ccccc1)(c1ccccc1)c1ccccc1)C(F)(F)C(F)(F)C(F)(F)C(F)(F)C(F)(F)F", "GI50": "> 100 µM (inactive)"}
{"compound": "CCCCCCCCCCCC1CCCC(C)N1 (stereo not given)", "GI50": "46.3 µM (inactive)"}
{"compound": "N#C/C(=C\\c1cc(Br)c(O)c(Br)c1)c1cccnc1", "GI50": "36.1 µM (inactive)"}
{"compound": "COc1cc(/C=C/C(=N\\NC(N)=S)c2sc(NNC(C)=O)nc2C)ccc1O", "GI50": "> 100 µM (inactive)"}
{"compound": "CN(C)CC1CC/C(=C\\c2ccc(Cl)c(Cl)c2)C1=O (stereo not given)", "GI50": "> 40.8 µM (inactive)"}
{"compound": "CC1=C(C#N)S(=O)(=O)c2c(oc(C)c2C)N1", "GI50": "> 100 µM (inactive)"}

The origin of these recorded values is ChEMBL document CHEMBL1201862.
